Listed here: items and their measured IC50.
Molecular target: hOX1R (orexin-1 receptor) (Homo sapiens, UniProt O43613)
Assay: FLIPR Ca2+ Flux Assay, hOX1R
Settings: CHO cells expressing the receptor; agonist Ala-6,12 human orexin-A

(Q) Which IC50 value is on record for `C[C@@H]1CC[C@@H](c2nsc(C(C)(C)O)n2)CN1C(=O)c1cscc1-c1ncccn1` ?
(A) > 10 µM

(Q) Any idea what its IC50 is? The molecule is `CC(C)c1noc([C@@H]2CC[C@@H](C)N(C(=O)c3ccccc3-n3nccn3)C2)n1`
(A) 4.5 µM

(Q) # input molecule: `C[C@@H]1CC[C@@H](c2noc(C(C)(C)O)n2)CN1C(=O)c1ccccc1-n1ncnn1` ; wanted: its IC50
(A) > 10 µM

* * *

Biological target: human orexin-2 receptor (Homo sapiens (Human), UniProt O43614)
Sequence (O43614 whole entry): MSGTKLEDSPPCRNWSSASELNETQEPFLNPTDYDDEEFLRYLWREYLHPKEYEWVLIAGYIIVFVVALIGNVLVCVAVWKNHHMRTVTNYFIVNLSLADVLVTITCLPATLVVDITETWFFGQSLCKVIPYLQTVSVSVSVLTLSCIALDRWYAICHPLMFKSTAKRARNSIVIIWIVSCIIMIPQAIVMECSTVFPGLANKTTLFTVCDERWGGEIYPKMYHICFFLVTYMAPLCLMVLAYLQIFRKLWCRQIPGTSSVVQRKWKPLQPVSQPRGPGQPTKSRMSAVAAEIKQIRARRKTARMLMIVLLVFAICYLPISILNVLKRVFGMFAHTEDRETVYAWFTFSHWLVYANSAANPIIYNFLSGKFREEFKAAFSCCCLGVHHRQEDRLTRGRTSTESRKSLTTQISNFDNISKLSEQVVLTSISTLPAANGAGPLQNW
Experiment: FLIPR Ca2+ Flux Assay, hOX2R
Settings: CHO cells expressing the receptor; agonist Ala-6,12 human orexin-A
pIC50: −log10 of the molar value.
Rule: pIC50 of 7 or more gives y; anything lower gives n.

Completed entries (count: 2):
structure_as_smiles=CC(C)Oc1ncccc1C(=O)N1C[C@H](c2nsc(C(C)(C)O)n2)CC[C@H]1C class=n
structure_as_smiles=C[C@@H]1CC[C@@H](c2noc(C(C)(C)O)n2)CN1C(=O)c1ccccc1-n1nccn1 class=y

Please find the next compound below.
(Q) Hello, I need to know if `C[C@@H]1CC[C@@H](c2nsc(C(C)(C)O)n2)CN1C(=O)c1ccccc1C1(C#N)CC1` has measured pIC50 not below 7. Thanks!
(A) y

* * *

Target: human orexin-2 receptor (Homo sapiens (Human), UniProt O43614)
Experiment: FLIPR Ca2+ Flux Assay, hOX2R
Conditions: CHO cells expressing the receptor; agonist Ala-6,12 human orexin-A
recorded.metric: pIC50
// scale note: pIC50 = -log10(conc_M); give the bare number

Examples with answers:
molecule="C[C@@H]1CC[C@@H](c2nc(C3CC3)no2)CN1C(=O)c1ccccc1-n1nccn1 [Example 28]" recorded_metric=pIC50 numeric_result=6.46
molecule="COC(C)(C)c1nc([C@@H]2CC[C@@H](C)N(C(=O)c3ccccc3-n3nccn3)C2)ns1 [Example 43]" recorded_metric=pIC50 numeric_result=7.41

(Q) Item under review: C[C@@H]1CC[C@@H](c2nsc(C(C)(C)O)n2)CN1C(=O)c1cscc1-c1ncccn1 [Example 42] . Reported pIC50?
(A) 7.08

(Q) Item under review: C[C@@H]1CC[C@@H](c2noc([C@@H](O)C(F)(F)F)n2)CN1C(=O)c1ccccc1-n1nccn1 [Example 9] . Reported pIC50?
(A) 7.11

(Q) // query pIC50 value for entry C[C@@H]1CC[C@@H](c2noc(C(C)(C)O)n2)CN1C(=O)c1ccccc1OC(F)F [Example 18]
(A) 6.85

(Q) Data request, read-out pIC50, for C[C@@H]1CC[C@@H](c2noc(C(C)(C)O)n2)CN1C(=O)c1ccsc1-c1ncccn1 [Example 22]
(A) 7.21

(Q) # input molecule: C[C@@H]1CC[C@@H](c2nsc(C(C)(C)O)n2)CN1C(=O)c1ccsc1-c1ncccn1 [Example 40] ; wanted: its pIC50
(A) 7.30

(Q) Suppose we examine the molecule C[C@@H]1CC[C@@H](c2noc([C@@](C)(O)C(F)(F)F)n2)CN1C(=O)c1ccccc1-n1nccn1 [Example 10] ; what pIC50 value has been reported?
(A) 7.01
